Tested on: K562 cells
assayOverview: Cell growth inhibitory activity assay (CellTiter-Glo), K562 cells
Type: cell-based
conditionLabel: Homo sapiens, 72 h, CTG cell viability
assayEndpoint: IC50

Provide only the value of recorded IC50 for CC(C)n1cc2c(n1)-c1cc(-c3cc(C(=O)Nc4ccc(OC(F)(F)Cl)cc4)cc4nc5n(c34)[C@H](C)COC5)cnc1C2
≤ 5 nM

Tell me IC50 reported for CC(=O)NC1CCC2c3cc(C(=O)Nc4ccc(OC(F)(F)Cl)cc4)cc(-c4cnc5c(c4)C(=O)N(C)C5)c3N(C(C)C)C12 (racemic)
≤ 5 nM

Please report the measured IC50 for Cc1ccnc(-n2cc3c(n2)-c2cc(-c4cc(C(=O)Nc5ccc(OC(F)(F)Cl)cc5)cc5nc6n(c45)[C@H](C)COC6)cnc2C3)n1
≤ 5 nM

###

targetSystem: Ba/F3 BCR-ABL1 T315M (Homo sapiens, UniProt P00519+P11274, T315M)
Construct: BCR (N-terminal fusion partner of the oncoprotein)
assayOverview: Cell growth inhibitory activity assay (CellTiter-Glo), Ba/F3 BCR-ABL1 T315M cells
conditionLabel: 72 h, CTG cell viability
pIC50: −log10 of the molar value.
assayEndpoint: pIC50

Note pIC50 for the compound shown: CC(=O)N[C@@H]1CCC2c3cc(C(=O)Nc4ccc(OC(F)(F)Cl)cc4)cc(-c4cnccn4)c3N(C(C)C)C21 (stereo partly shown)
6.00 to 7.30

Output measured pIC50 for this item: Cc1ccnc(-n2cc3c(n2)-c2cc(-c4cc(C(=O)Nc5ccc(OC(F)(F)Cl)cc5)cc5nc6n(c45)[C@H](C)COC6)cnc2C3)n1
≥ 8.30

Tell me its pIC50 given C[C@@H]1CC[S+]([O-])c2nc3cc(C(=O)Nc4ccc(OC(F)(F)Cl)cc4)cc(-c4cnc5c(c4)C(=O)N(C)C5)c3n21 (stereo partly shown) as the entry.
< 6.00

Give recorded pIC50. CC(=O)n1cc2c(n1)-c1cc(-c3cc(C(=O)Nc4ccc(OC(F)(F)Cl)cc4)cc4nc5n(c34)[C@H](C)COC5)cnc1C2
6.00 to 7.30

For the compound C[C@@H]1COCc2nc3cc(C(=O)Nc4ccc(OC(F)(F)Cl)cc4)cc(-c4cnc5c(c4)C(=O)NC5)c3n21 , report pIC50.
7.30 to 8.30

Consider the compound C[C@@H]1COCc2nc3cc(C(=O)Nc4ccc(OC(F)(F)Cl)cc4)cc(-c4cnc5c(c4)-c4nn(C6COC6)cc4C5)c3n21 and give its recorded pIC50.
< 6.00

Determine its reported pIC50: C[C@@H]1CCC(O)c2nc3cc(C(=O)Nc4ccc(OC(F)(F)Cl)cc4)cc(-c4cnc5c(c4)C(=O)NC5)c3n21 (stereo partly shown)
6.00 to 7.30

###

Would you kindly list IC50 for each of these compounds?
targetSystem: Ba/F3 BCR-ABL1 E255V/T315I (Homo sapiens, UniProt P00519+P11274, E255V/T315I)
Construct: BCR (N-terminal fusion partner of the oncoprotein)
assayOverview: Cell growth inhibitory activity assay (CellTiter-Glo), Ba/F3 BCR-ABL1 E255V/T315I cells
conditionLabel: 72 h, CTG cell viability

For the compound C[C@@H]1COCc2nc3cc(C(=O)Nc4ccc(OC(F)(F)Cl)cc4)cc(-c4cnc5c(c4)-c4nn(S(C)(=O)=O)cc4C5)c3n21 [T-42] , report IC50.
50 to 1000 nM

Return the recorded IC50 value; entry: C[C@@H]1CCSc2nc3cc(C(=O)Nc4ccc(OC(F)(F)Cl)cc4)cc(-c4cnc5c(c4)C(=O)N(C)C5)c3n21 [T-20]
5 to 50 nM

Give me measured IC50, please, for this compound: C[C@@H]1COCc2nc3cc(C(=O)Nc4ccc(OC(F)(F)Cl)cc4)cc(-c4cnc5c(c4)-c4nn(-c6cnccn6)cc4C5)c3n21 [T-71]
≤ 5 nM

For the compound C[C@@H]1COCc2nc3cc(C(=O)Nc4ccc(OC(F)(F)Cl)cc4)cc(-c4cnc5c(c4)C(=O)N(C4CC4)C5)c3n21 [T-25] , give its measured IC50 value.
5 to 50 nM

Answer with the recorded IC50 of C[C@@H]1COCc2nc3cc(C(=O)Nc4ccc(OC(F)(F)Cl)cc4)cc(-c4cnc5c(c4)-c4c(cnn4-c4nccc(C#N)n4)C5)c3n21 [T-69-A] only.
5 to 50 nM

Report IC50 for C[C@@H]1COCc2nc3cc(C(=O)Nc4ccc(OC(F)(F)Cl)cc4)cc(-c4cnc5c(c4)-c4nn(-c6ncccn6)cc4C5)c3n21 [T-65]
≤ 5 nM

Name the recorded IC50 of the item CN1Cc2ncc(-c3cc(C(=O)Nc4ccc(OC(F)(F)Cl)cc4)cc4c3C(C)(C)C(=O)N4)cc2C1=O [T-7] in your answer.
5 to 50 nM

Report IC50 for CCn1cc2c(n1)-c1cc(-c3cc(C(=O)Nc4ccc(OC(F)(F)Cl)cc4)cc4nc5n(c34)[C@H](C)COC5)cnc1C2 [T-18]
≤ 5 nM

For the compound CC(=O)NC1CCC2c3cc(C(=O)Nc4ccc(OC(F)(F)Cl)cc4)cc(-c4cnc5c(c4)C(=O)N(C)C5)c3N(C(C)C)C12 (racemic) [T-11] , give its measured IC50 value.
50 to 1000 nM

Provide one value: measured IC50 of CC(C)n1cc2c(n1)-c1cc(-c3cc(C(=O)Nc4ccc(OC(F)(F)Cl)cc4)cc4nc5n(c34)[C@H](C)COC5)cnc1C2 [T-48]
≤ 5 nM

# return recorded IC50 for entry C[C@@H]1COCc2nc3cc(C(=O)Nc4ccc(OC(F)(F)Cl)cc4)cc(-c4cnc5c(c4)-c4nn(C6COC6)cc4C5)c3n21 [T-52]
≤ 5 nM

For C[C@@H]1COCc2nc3cc(C(=O)Nc4ccc(OC(F)(F)Cl)cc4)cc(-c4cnc5c(c4)-c4nn(-c6ccccn6)cc4C5)c3n21 [T-4] , write its IC50.
5 to 50 nM

Entry C[C@@H]1COCc2nc3cc(C(=O)Nc4ccc(OC(F)(F)Cl)cc4)cc(-c4cnc5c(c4)-c4nn(C6CC6)cc4C5)c3n21 [T-57] needs its IC50 filled in; supply it.
≤ 5 nM

Identify measured IC50 corresponding to C[C@@H]1COCc2nc3cc(C(=O)Nc4ccc(OC(F)(F)Cl)cc4)cc(-c4cnc5c(c4)C(=O)N(C)C5)c3n21 [T-21]
5 to 50 nM

Tell me IC50 reported for [2H]C([2H])([2H])C([2H])(n1cc2c(n1)-c1cc(-c3cc(C(=O)Nc4ccc(OC(F)(F)Cl)cc4)cc4nc5n(c34)[C@H](C)COC5)cnc1C2)C([2H])([2H])[2H] [T-54]
≤ 5 nM

Determine from records and report IC50 for C[C@@H]1COCc2nc3cc(C(=O)Nc4ccc(OC(F)(F)Cl)cc4)cc(-c4cnc5c(c4)-c4nc(N)sc4C5)c3n21 [T-114]
50 to 1000 nM

Provide measured IC50 value, entry: C[C@@H]1COCc2nc3cc(C(=O)Nc4ccc(OC(F)(F)Cl)cc4)cc(-c4cnc5c(c4)-c4nn(CC(F)(F)F)cc4C5)c3n21 [T-49]
≤ 5 nM

Consider the compound C[C@@H]1COCc2nc3cc(C(=O)Nc4ccc(OC(F)(F)Cl)cc4)cc(-c4cnc5c(c4)-c4nn(-c6ncc(C#N)cn6)cc4C5)c3n21 [T-78] and give its recorded IC50.
≤ 5 nM

Read the entry C[C@@H]1COCc2nc3cc(C(=O)Nc4ccc(OC(F)(F)Cl)cc4)cc(-c4cnc5c(c4)-c4nn(-c6nccc(C#N)n6)cc4C5)c3n21 [T-69-B] and write its reported IC50.
≤ 5 nM

Give the reported IC50 for this compound. Cc1cc(C)nc(-n2cc3c(n2)-c2cc(-c4cc(C(=O)Nc5ccc(OC(F)(F)Cl)cc5)cc5nc6n(c45)[C@H](C)COC6)cnc2C3)n1 [T-76]
≤ 5 nM

Quickly give me recorded IC50 for CC(C)n1cnc2cc(C(=O)Nc3ccc(OC(F)(F)Cl)cc3)cc(-c3cnc4c(c3)C(=O)N(C)C4)c21 [T-2]
5 to 50 nM

Tell us which IC50 value is on record for C[C@@H]1COCc2nc3cc(C(=O)Nc4ccc(OC(F)(F)Cl)cc4)cc(-c4cnccn4)c3n21 [T-115]
5 to 50 nM

In one line, give reported IC50 of the entry [2H]C([2H])([2H])N1Cc2ncc(-c3cc(C(=O)Nc4ccc(OC(F)(F)Cl)cc4)cc4nc5n(c34)[C@H](C)COC5)cc2C1=O [T-31] .
5 to 50 nM

Give recorded IC50. C[C@@H]1COCc2nc3cc(C(=O)Nc4ccc(OC(F)(F)Cl)cc4)cc(-c4cnc5c(c4)-c4n[nH]cc4C5)c3n21 [T-3]
≤ 5 nM

Specify measured IC50 for C[C@@H]1COCc2nc3cc(C(=O)Nc4ccc(OC(F)(F)Cl)cc4)cc(-c4cnc5c(c4)-c4nn(-c6cncnc6)cc4C5)c3n21 [T-66] .
50 to 1000 nM
